Target: Beta-2 adrenergic receptor (Homo sapiens) (UniProt P07550)
Sequence (P07550 whole entry, looked up): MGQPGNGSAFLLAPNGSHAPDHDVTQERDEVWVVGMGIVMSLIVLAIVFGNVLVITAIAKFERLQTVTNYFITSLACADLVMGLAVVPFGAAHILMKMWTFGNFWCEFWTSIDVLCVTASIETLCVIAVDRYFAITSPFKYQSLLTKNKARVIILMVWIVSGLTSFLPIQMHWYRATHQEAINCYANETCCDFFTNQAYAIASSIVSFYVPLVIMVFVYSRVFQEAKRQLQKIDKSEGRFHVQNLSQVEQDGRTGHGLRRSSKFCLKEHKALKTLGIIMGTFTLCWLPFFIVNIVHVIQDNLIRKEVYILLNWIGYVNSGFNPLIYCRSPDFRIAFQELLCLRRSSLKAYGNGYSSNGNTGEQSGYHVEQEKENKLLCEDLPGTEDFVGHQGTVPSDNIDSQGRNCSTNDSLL
Assay: Adrenergic beta2 receptor (ADRB2) small molecule antagonists, cell-based qHTS assay (AID 1963592); further: nearly all actives have a fitted effect of over 50% in size
Settings: CHO-ADRB2 cells, isoproterenol-stimulated cAMP HTRF ratio, 0.5 h; series mostly up to 92.4 µM
Records with an inconclusive call do not appear. Activity calls are given as the source filed them. The call rests on the fitted dose curve.
Outcome codes: yes (1) = active, no (0) = inactive

[[record]]
molecule = "CCOS(=O)(=O)OCC"
qualitative_label = "no (0)"

[[record]]
molecule = "CCNc1nc(NC(C)C)nc(OC)n1"
qualitative_label = "no (0)"

[[record]]
molecule = "C#CCOC(C(=O)OCCN(C)C)(c1ccccc1)c1ccccc1"
qualitative_label = "no (0)"

[[record]]
molecule = "C=CCBr"
qualitative_label = "no (0)"

[[record]]
molecule = "OCCOCCO"
qualitative_label = "no (0)"

[[record]]
molecule = "Nc1cc(Cl)cc(Cl)c1"
qualitative_label = "no (0)"

[[record]]
molecule = "Cc1cnc[nH]1"
qualitative_label = "no (0)"

[[record]]
molecule = "Nc1ccc(Oc2ccc(N)cc2)cc1"
qualitative_label = "no (0)"

[[record]]
molecule = "O=[N+]([O-])c1cccc(O)c1"
qualitative_label = "no (0)"

[[record]]
molecule = "CCC1(CC)C(=O)C=CNC1=O"
qualitative_label = "no (0)"

[[record]]
molecule = "CCC(=O)O[C@H]1CC[C@H]2[C@@H]3CCC4=CC(=O)CC[C@]4(C)[C@H]3CC[C@]12C"
qualitative_label = "no (0)"

[[record]]
molecule = "CCc1cc(C)cc(CC)c1-c1c(OC(=O)C(C)(C)C)n2n(c1=O)CCOCC2"
qualitative_label = "no (0)"

[[record]]
molecule = "CCC(=O)c1ccccc1"
qualitative_label = "no (0)"

[[record]]
molecule = "CNC"
qualitative_label = "no (0)"

[[record]]
molecule = "N#CC(c1ccccc1)c1ccccc1"
qualitative_label = "no (0)"

[[record]]
molecule = "CCCC(C)(COC(N)=O)COC(=O)NC(C)C (configuration not stated)"
qualitative_label = "no (0)"

[[record]]
molecule = "O=C(O)C(F)(F)C(F)(F)C(F)(F)C(F)(F)C(F)(F)C(F)(F)C(F)(F)C(F)(F)C(F)(F)C(F)(F)F"
qualitative_label = "no (0)"

[[record]]
molecule = "CCC[CH2][Sn]([Cl])([Cl])[CH2]CCC"
qualitative_label = "no (0)"

[[record]]
molecule = "c1ccc2c(c1)-c1cccc3cccc-2c13"
qualitative_label = "no (0)"

[[record]]
molecule = "CCC(C)C(C)(COC(N)=O)COC(N)=O (configuration not stated)"
qualitative_label = "no (0)"

[[record]]
molecule = "Nc1ccccc1C(=O)O"
qualitative_label = "no (0)"

[[record]]
molecule = "CC1=C2[C@H]3OC(=O)[C@@H](C)[C@@H]3CC[C@@]2(C)C=CC1=O"
qualitative_label = "no (0)"

[[record]]
molecule = "O=C(NC(=O)c1c(F)cccc1F)Nc1ccc(Cl)cc1"
qualitative_label = "no (0)"

[[record]]
molecule = "COC(=O)C(Br)CBr (configuration not stated)"
qualitative_label = "no (0)"

[[record]]
molecule = "CCCn1cc[n+](C)c1"
qualitative_label = "no (0)"

[[record]]
molecule = "COC(C)(C)CCCC(C)C/C=C/C(C)=C/C(=O)OC(C)C (configuration not stated)"
qualitative_label = "no (0)"

[[record]]
molecule = "Cc1ccccc1N"
qualitative_label = "no (0)"

[[record]]
molecule = "c1cc2c(c(N3CCNCC3)c1)OCCO2"
qualitative_label = "yes (1)"

[[record]]
molecule = "Nn1cnnc1"
qualitative_label = "no (0)"

[[record]]
molecule = "CCC(CC)Nc1c([N+](=O)[O-])cc(C)c(C)c1[N+](=O)[O-]"
qualitative_label = "no (0)"

[[record]]
molecule = "CC(C)(C1CCC(O)CC1)C1CCC(O)CC1 (configuration not stated)"
qualitative_label = "no (0)"

[[record]]
molecule = "N#CC(Br)Br"
qualitative_label = "no (0)"

[[record]]
molecule = "N#Cc1ccccn1"
qualitative_label = "no (0)"

[[record]]
molecule = "O=Cc1ccccc1"
qualitative_label = "no (0)"

[[record]]
molecule = "Cc1ccc(CCl)cc1"
qualitative_label = "no (0)"

[[record]]
molecule = "Brc1ccc(Br)cc1"
qualitative_label = "no (0)"

[[record]]
molecule = "CN(C)N=O"
qualitative_label = "no (0)"

[[record]]
molecule = "Nc1ccncc1"
qualitative_label = "no (0)"

[[record]]
molecule = "C=CCN1C[C@H](C)N([C@H](c2ccc(C(=O)N(CC)CC)cc2)c2cccc(OC)c2)C[C@H]1C"
qualitative_label = "no (0)"

[[record]]
molecule = "CC(C)(Cl)Cl"
qualitative_label = "no (0)"

[[record]]
molecule = "Oc1ccc(Cl)cc1"
qualitative_label = "no (0)"

[[record]]
molecule = "CC1=C(C(=O)Nc2ccccc2)SCCO1"
qualitative_label = "no (0)"

[[record]]
molecule = "CCOC(=O)c1ccccc1C(=O)OCC"
qualitative_label = "no (0)"

[[record]]
molecule = "Nc1c(Oc2ccccc2)cc(O)c2c1C(=O)c1ccccc1C2=O"
qualitative_label = "no (0)"

[[record]]
molecule = "CN(C)c1ccc(C(=O)c2ccc(N(C)C)cc2)cc1"
qualitative_label = "no (0)"

[[record]]
molecule = "CC1OC(C)OC(C)O1 (configuration not stated)"
qualitative_label = "no (0)"

[[record]]
molecule = "Sc1ccccc1Cl"
qualitative_label = "no (0)"

[[record]]
molecule = "Brc1ccc(Oc2cc(Br)c(Br)cc2Br)c(Br)c1"
qualitative_label = "no (0)"

[[record]]
molecule = "CN(C)P(=O)(N(C)C)N(C)C"
qualitative_label = "no (0)"

[[record]]
molecule = "ClC(Cl)c1ccccc1"
qualitative_label = "no (0)"

[[record]]
molecule = "Clc1ccc(COC(Cn2ccnc2)c2ccc(Cl)cc2Cl)cc1 (configuration not stated)"
qualitative_label = "no (0)"

[[record]]
molecule = "CNC(=O)NC(O)C(Cl)(Cl)Cl (configuration not stated)"
qualitative_label = "no (0)"

[[record]]
molecule = "CCOc1cc(C=O)ccc1O"
qualitative_label = "no (0)"

[[record]]
molecule = "O=Cc1ccco1"
qualitative_label = "no (0)"

[[record]]
molecule = "O=[N+]([O-])c1cc(Cl)ccc1Cl"
qualitative_label = "no (0)"

[[record]]
molecule = "Nc1ccccc1"
qualitative_label = "no (0)"

[[record]]
molecule = "CCOC(=O)CP(=O)(OCC)OCC"
qualitative_label = "no (0)"

[[record]]
molecule = "COc1cc(OC)nc(Sc2cccc(Cl)c2C(=O)O)n1"
qualitative_label = "no (0)"

[[record]]
molecule = "COP(=O)(O)OC"
qualitative_label = "no (0)"

[[record]]
molecule = "O=C(NCO)NCO"
qualitative_label = "no (0)"

[[record]]
molecule = "BrCC(Br)c1ccccc1 (configuration not stated)"
qualitative_label = "no (0)"

[[record]]
molecule = "CCN(CC)C(=S)S"
qualitative_label = "no (0)"

